Assay: NCI Yeast Anticancer Drug Screen. Data for the cln2 rad14 strain (AID 165);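 also: 0% = growth equal to vehicle treated cultures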
Conditions: S. cerevisiae cln2 rad14 strain, at 50.0 µM
The panel holds about 79,000 compounds, 15% with a hit somewhere; the sample as a whole holds those more often. The source made the active and inactive calls. Rule as the data show it: active = growth inhibition above about 70%; inactive = the rest.
Possible outcomes: active, inactive

compound	group-label
Clc1ccc2c(Cl)c3c(nc2c1)CCCC3	active
ClC1(Cl)c2ccccc2-c2ccccc21	inactive
Nc1cc(Cl)c(I)cc1Cl	inactive
Cc1ccc(Nc2nc3c(s2)C(=O)c2ccccc2C3=O)c(C)c1	active
O=C(O)CCCCCCCCC(=O)O.[Ag]	active
C=C(CS(=O)(=O)c1ccccc1)[P+](c1ccccc1)(c1ccccc1)c1ccccc1	inactive
OCCC(CCN1CCOCC1)(c1ccccc1)C1(O)CCCC1 (configuration not stated)	active
Nc1ccc(O)c(=O)cc1	inactive
CCN(CC)C(C)(C)C(=O)/C=C/c1ccc(Cl)c(Cl)c1	inactive
O=C(O)c1c(Br)c(Br)c(Br)c(Br)c1-c1c2ccc(=O)cc-2oc2cc(O)ccc12	active
c1ccc(-c2ccc(-c3ccc(C4=NCCN4)cc3)o2)cc1	active
c1ccc(NN=C(c2ccccc2)c2ccccc2)cc1	active

---

Assay: NCI Yeast Anticancer Drug Screen. Data for the mec2-1 strain (AID 157)
Details: S. cerevisiae mec2-1 strain, at 50.0 µM, hits give high values
The panel holds about 79,000 compounds, 15% with a hit somewhere; the sample as a whole holds those more often. The source made the active and inactive calls. Rule as the data show it: active = growth inhibition above about 70%; inactive = the rest.
Each entry below carries its reported growth inhibition.
experimental-endpoint: growth inhibition

molecule	value-observed
c1ccc2cc3nc4ccccc4nc3cc2c1	51.4% (inactive)
NC1=NC2=C(CCCC2)C(c2cccs2)S1 (configuration not stated)	32.4% (inactive)
O=S(=O)(Nc1ccccc1)c1ccccc1C=C(c1ccccc1)c1ccccc1	86% (active)
CC1CCCN(CC(O)CN2CCCc3ccccc32)C1 (configuration not stated)	94.5% (active)
CS(=O)(=O)OCCN(CCOS(C)(=O)=O)c1ccc(N=Nc2ccccc2)cc1	45% (inactive)
Cc1cc([N+](=O)[O-])cc(C)c1OC(=O)Nc1c(Cl)cccc1Cl	22.1% (inactive)
O=C(N=Nc1c(O)[nH]c2ccccc12)C(O)(c1ccccc1)c1ccccc1	-8.75% (inactive)
S=c1[nH]c2ccc(Br)cc2c(=S)n1-c1ccccc1	91.2% (active)
CC(C)(C)OC(=O)NCCNC(=O)CN(CC(=O)O)C1CCCCC1N(CC(=O)O)CC(=O)O (configuration not stated)	62.3% (inactive)
O=c1c2cnccc2cc2c3ccccc3ccn12	41.5% (inactive)
CCOC(=O)C(C#N)NC(C)=O (configuration not stated)	49.3% (inactive)
O=C(/C=C(/c1ccccc1)P(=O)(c1ccccc1)c1ccccc1)c1ccccc1	98.6% (active)
C=C1C(=O)C23C(O)C1CC[C@H]2C12CCCC(C)(COC(C)=O)[C@H]1[C@H](O)[C@]3(O)OC2 (some centres not stated)	92.2% (active)
CC(=O)OC(C)C1C2=C(C(=O)CC1(C)O)C(=O)c1c(ccc(-c3ccc4c(c3O)C(=O)C3=C(C4=O)C(C(C)OC(C)=O)C(C)(O)CC3=O)c1O)C2=O (configuration not stated)	79.6% (active)
CC1(C)N([O-])[N+](=O)C1(Br)c1ccccc1 (configuration not stated)	93.8% (active)
COc1ccc(CCN2CC(=O)N3CSCC3C2=O)cc1OC (configuration not stated)	7.05% (inactive)
CC(/C=C/c1ccc(Cl)c(Cl)c1)=N\NC(N)=S	53.5% (inactive)
O=C(O)/C=C/C(=O)Nc1cccc2ccccc12	35.9% (inactive)
c1ccc(NN=C(c2ccccc2)c2ccccc2)cc1	94.3% (active)
O=C(c1ccc(Cl)cc1)c1ccc(OCCCOc2ccc(C(=O)c3ccc(Cl)cc3)cc2)cc1	-16.1% (inactive)
O=C1C=CC(=O)N1c1ccc(Br)c(Cl)c1	87.8% (active)
OCCN1c2ccccc2Sc2ccc(Cl)cc21	92% (active)
Clc1ccccc1NN(Cc1ccccn1)c1ccccc1Cl	58.7% (inactive)
N#CSCC(=O)c1ccccc1	99.2% (active)
Cc1ccc(C(=O)N2CCN(C(=O)c3ccc(C)cc3)c3ccccc32)cc1	33.7% (inactive)
Nc1cc(F)c(F)cc1Sc1cc(F)c(F)cc1N	99.2% (active)
O=P1(Cc2ccccc2)c2ccccc2-c2ccccc21	91.1% (active)
Cc1cc(Nc2ccc(N=Nc3ccc(O)c4ncccc34)cc2)nc(C)n1	52.5% (inactive)
C=C(CN(C)C)C(=O)c1ccc(Oc2ccccc2)cc1	99.4% (active)
Oc1ccc[nH]c1=S	12.2% (inactive)
Oc1c(Cl)cccc1-c1ccccc1	12.2% (inactive)
Cc1c(O)c2c(c(O)c1Br)C(=O)C=CC2=O	90.5% (active)
O=C(c1ccc([N+](=O)[O-])cc1)C(Br)C(Br)c1ccnc2ccccc12 (configuration not stated)	99.1% (active)
CC(C)(C)OC(=O)N(CCCCNC(=O)OCc1ccccc1)CCCNC(=O)OCc1ccccc1	14.8% (inactive)
NC(=O)C1CCN(N=Nc2c(-c3ccccc3)n[nH]c2-c2ccccc2)CC1	99.5% (active)
Cc1[nH]nc(C(F)(F)F)c1N=NN1CCOCC1	99.7% (active)
O=[N+]([O-])c1cc(C(F)(F)F)cc([N+](=O)[O-])c1CCl	99.8% (active)
Nc1ccc2nc(N)sc2c1	-3.75% (inactive)
C=CC1(C)CCC2C(=CCC3C2(C)CC(O)C(O)C3(C)COC2OC(CO)C(O)C(O)C2O)C1 (configuration not stated)	94.1% (active)
OCC(O)C(O)C(O)C(O)c1cnn(-c2ccccc2)n1 (configuration not stated)	3.45% (inactive)
Cc1nn(C(=O)c2ccccc2O)c2c1C(c1ccco1)SC(N)=N2 (configuration not stated)	38.8% (inactive)
COc1ccc(CSC(=S)Nc2ccc(Cl)c([N+](=O)[O-])c2)cc1	77.1% (active)
C/C=C\c1cc2c(cc1CC#N)OCO2	20.1% (inactive)
FC(F)(F)c1ccc(-c2ccc(OCCN3CCCC3)cc2)cc1	99.5% (active)
NNC(=S)Nc1ccccc1	79.9% (active)
Cc1ccc(O)c(Cc2cccc(Cl)c2)c1	99.5% (active)
CCOc1c(N=Nc2ccccc2Cl)c(C)nn1C(=S)S	80.7% (active)
